Can you tell me GI50 for the items I'm about to list?
System: LOX IMVI
Experiment: NCI tumour cell line growth inhibition, 48 h
Calls of active or inactive are those of the source. No stated cut-off is given here; in the data, active = GI50 up to about 1.1 µM and inactive = higher.

Requested read-out: GI50. Entry: CC(C)CS(=O)(=O)/C(=C(\c1ccc(Br)cc1)S(=O)(=O)CC(C)C)c1ccc(Br)cc1
> 100 µM (inactive)

For CC1=Nc2nc(Cl)cn2C(=O)C1(Cl)Cl , what is its reported GI50?
> 10 µM (inactive)

Could you share which GI50 value was measured for Brc1ccc(C2SCc3nc4ccccc4n32)cc1 (centres undefined) ?
6.46 µM (inactive)

Dear colleague, I am looking for the recorded GI50 of the following molecule: COc1ccc2[nH]c3c(c2c1)[C@H](C)C[C@@H]1C(=O)N(c2ccccc2)C(=O)[C@H]31
25.2 µM (inactive)

* * *

Tested on: NCI-H460
Assay: NCI tumour cell line growth inhibition, 48 h
Activity calls are given as the source filed them. Rule as the data show it: active = GI50 up to about 1.1 µM and inactive = higher.
Please state which outcome applies, choosing from yes (1) (active), no (0) (inactive)

I'd appreciate the recorded outcome for Oc1cc(-c2ccccc2)nc2cc(Cl)ccc12 from this test.
yes (1)

What did the test return for COc1ccc(/N=N/c2ccc3oc(=O)c(C(=O)Nc4ccc(Cl)cc4)cc3c2)cc1 ?
no (0)

Field: outcome | Entry: O=C(c1cc(Cl)ccc1Cl)N1CCN(C(=O)c2cc(Cl)ccc2Cl)CC1
no (0)

Hi, sorry to bother you, what did the test record for CN(N=O)C(=O)N[C@H]1C(O)O[C@H](CO)[C@@H](O)[C@@H]1O (stereo not given in full) ?
no (0)

Query: recorded result category for CC(C)(C)OC(=O)N(O)CCCn1cnc2c(N)ncnc21 in this test
no (0)

What was the test verdict on CCn1c(SCC(=O)NNC(=S)Nc2ccc(Cl)cc2)nc2ccccc2c1=O ?
no (0)

Just curious, what result did CC(=O)O[C@H]1CC2C=CC3C(CCC31)O2 (stereo not given in full) get here?
no (0)

What classification did CCCNC(=O)CCC(C)[C@H]1CCC2C3C(C[C@H](OC(C)=O)[C@@]21C)[C@@]1(C)CCC2(C[C@H]1C[C@H]3OC(C)=O)OOC1(CCCCC1)OO2 (stereo not given in full) end up with in this test?
no (0)

Please state the recorded outcome for this molecule: Nc1nc(Cl)c(N)c(NCC2(CO)CC(Cc3ccccc3)C2)n1 (stereo not given)
no (0)

Name the outcome recorded for C/C(CC1SCCCS1)=C(/C)CC1SCCCS1 in the assay.
no (0)

Test call, this molecule: CCCC(C)NC1=C(NC(C)=O)C(=O)c2ccccc2C1=O (stereo not given)
no (0)

Query: recorded result category for N#Cc1c(Cl)cc(C#N)n2c1nc1ccccc12 in this test
no (0)

Just curious, what result did CCC(N)(C(=O)O)C(C)C (stereo not given) get here?
no (0)

Which outcome was entered for the molecule C/N=C(N)/N=C(\N)Nc1cc2ccccc2c2ccccc12 in this test?
no (0)

Please share the test call associated with COc1ccc(/C=C2\CCC(CCN(C)C)(C3=CCCC3)C2=O)cc1Br (stereo not given) .
no (0)

* * *

Tested on: PC-3
Test: NCI tumour cell line growth inhibition, 48 h
The source made the active and inactive calls. Rule as the data show it: active = GI50 up to about 1.1 µM and inactive = higher.
Please respond with reported GI50 for every item in the list.

I have this molecule here, C=CC(OC(=O)C(C)C)c1ccc(OC(=O)C(C)C)cc1 (stereo not given) , and I need its recorded GI50.
8.97 µM (inactive)

For C=CC(CBr)CCC(Br)C(C)(C)Br (stereo not given) , what is its reported GI50?
> 10 µM (inactive)

For the molecule shown here, CC1CC[C@@]2(OC1)OC1C[C@H]3[C@@H]4C/C(=N\N(C)C)[C@@]5(O)CC(O)CC[C@]5(C)[C@H]4CC[C@]3(C)C1[C@@H]2C (stereo not given in full) , give the reported GI50.
33.7 µM (inactive)

Report GI50 for O=C1C(F)=CC(COC(c2ccccc2)(c2ccccc2)c2ccccc2)OC1n1cc(F)c(=O)[nH]c1=O (stereo not given) please.
1.71 µM (inactive)

Reported GI50 for Cc1cc2c(cc1-c1cc3c(cc1C)C(C(C)C)=C(O)C(=O)/C3=C\NCC1CCCN3CCCCC13)/C(=C/NCC1CCCN3CCCCC13)C(=O)C(O)=C2C(C)C (stereo not given) : what is it?
5.02 µM (inactive)

Requested read-out: GI50. Entry: Nc1nc(Cl)cc(OCC2(CO)CCCC2)n1
> 100 µM (inactive)

Quick one: GI50 of CC(=O)N[C@@H](Cc1ccc(O)cn1)C(=O)NCc1cccc(Cl)c1 ?
> 100 µM (inactive)

Give the measured GI50 of CCOC(=O)C(NC(=O)c1ccccc1)(N1CCOCC1)C(F)(F)F (stereo not given) .
> 100 µM (inactive)

Please report the recorded GI50 for O=C1CSC2(CC(/C=C/c3ccccc3[N+](=O)[O-])=NN2c2cccc(S(=O)(=O)O)c2)N1c1nc2ccccc2s1 (stereo not given) .
15.3 µM (inactive)

Using the record for Nc1nc(Cl)cc(OCC2(CO)CC=CC2)n1 , report its GI50.
> 100 µM (inactive)
